# STUDY TARGET: SpLsb4
# PROCEDURE DETAILS: SPOT peptide array binding signal intensity (averaged, normalized) (arbitrary units (background-subtracted, floor 0; scale differs between SH3 domains)); higher = stronger binding of the SH3 domain to the peptide
The class of a record is decided solely by its measured SPOT peptide array binding signal intensity; consult bottom end (below 200), midrange (200 to below 1000), top end (1000 or more)

[[record]]
binder = "GRSRLFPHSPLGRSS"
category_label = "bottom end"

[[record]]
binder = "RLSFFFPLDPAYIRN"
category_label = "bottom end"

[[record]]
binder = "VDFTLPPPPPPPGLD"
category_label = "bottom end"

[[record]]
binder = "LKRITSPPLPPRADS"
category_label = "top end"

[[record]]
binder = "VQPTAAPATPPRHIS"
category_label = "top end"

[[record]]
binder = "RRRRRPHRIERPLSN"
category_label = "midrange"

[[record]]
binder = "QFDLKMPSKPIHNLK"
category_label = "midrange"

[[record]]
binder = "KKIRLIFTYPSTVGR"
category_label = "midrange"

[[record]]
binder = "SSTPTTPERPKRKSG"
category_label = "top end"

[[record]]
binder = "FTLPPPPPPPGLDEL"
category_label = "bottom end"

[[record]]
binder = "LSKRLPLRFPEHTSS"
category_label = "top end"

[[record]]
binder = "NMLKKKPLKKPLKRF"
category_label = "midrange"

[[record]]
binder = "YSRKKLPVVLSKMTL"
category_label = "bottom end"

[[record]]
binder = "ITHRLRISIPGITGR"
category_label = "bottom end"

[[record]]
binder = "KDKSRPPRPPPKPLH"
category_label = "midrange"

